TEST_TARGET: P2X purinoceptor 5 (Homo sapiens, UniProt Q93086)
Sequence (Q93086 whole entry): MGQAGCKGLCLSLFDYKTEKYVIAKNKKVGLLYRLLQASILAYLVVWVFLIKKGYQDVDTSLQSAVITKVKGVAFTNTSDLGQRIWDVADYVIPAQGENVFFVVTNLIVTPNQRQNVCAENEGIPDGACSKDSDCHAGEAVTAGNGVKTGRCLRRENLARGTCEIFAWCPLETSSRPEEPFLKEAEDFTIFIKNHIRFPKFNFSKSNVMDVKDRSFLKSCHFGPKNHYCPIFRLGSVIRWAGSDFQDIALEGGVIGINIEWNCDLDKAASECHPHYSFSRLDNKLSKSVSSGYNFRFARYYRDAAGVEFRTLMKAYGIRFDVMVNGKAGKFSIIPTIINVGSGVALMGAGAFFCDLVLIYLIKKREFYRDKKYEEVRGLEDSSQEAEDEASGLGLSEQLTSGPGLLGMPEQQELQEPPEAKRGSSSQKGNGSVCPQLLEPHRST
PROPERTY: IC50

The reported IC50 value, P2X purinoceptor 5 (Homo sapiens, UniProt Q93086), for "COc1cc(C(C)C)c(Oc2cnc(N)nc2N)cc1I" reads > 10 µM

###

Some molecules, each annotated with its measured IC50.
TEST_TARGET: P2X purinoceptor 3 (Rattus norvegicus)
Sequence (P49654 whole entry): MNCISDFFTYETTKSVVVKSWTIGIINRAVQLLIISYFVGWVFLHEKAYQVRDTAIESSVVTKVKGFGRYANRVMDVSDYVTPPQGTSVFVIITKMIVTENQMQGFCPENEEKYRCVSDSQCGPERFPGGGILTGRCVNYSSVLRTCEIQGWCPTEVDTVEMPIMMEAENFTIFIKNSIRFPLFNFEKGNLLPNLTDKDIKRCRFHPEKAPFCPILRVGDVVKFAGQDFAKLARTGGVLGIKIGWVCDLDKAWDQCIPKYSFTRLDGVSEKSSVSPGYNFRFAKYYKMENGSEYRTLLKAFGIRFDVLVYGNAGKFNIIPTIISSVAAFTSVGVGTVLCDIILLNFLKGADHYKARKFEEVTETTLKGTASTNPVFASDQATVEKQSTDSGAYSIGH
ASSAY_COMMENT: Antagonist activity at rat recombinant P2X3 receptor expressed in CHO cells by FLIPR assay

>>> print(df.to_string())
                                   molecule  property  recorded_result
0  COc1cc(C(C)C)c(C(O)c2cnc(N)nc2N)cc1OC (configuration not stated)      IC50       > 10000 nM
1                CC(C)c1ccccc1Oc1cnc(N)nc1N      IC50          3980 nM
2           CCc1cc(OC)c(OC)cc1Oc1cnc(N)nc1N      IC50           158 nM

The reported IC50 value, P2X purinoceptor 3 (Rattus norvegicus), for "COc1cc(C(C)C)c(Oc2cnc(N)nc2N)cc1F" reads 3160 nM

The reported IC50 value, P2X purinoceptor 3 (Rattus norvegicus), for "COc1cc(Cc2cnc(N)nc2N)c(C2CCC2)cc1OC" reads > 10000 nM

The reported IC50 value, P2X purinoceptor 3 (Rattus norvegicus), for "COc1cc(Oc2cnc(N)nc2N)c(C(C)C)cc1-c1ccc(F)cc1" reads 2510 nM

The reported IC50 value, P2X purinoceptor 3 (Rattus norvegicus), for "COc1cc(C(C)C)c(Oc2cnc(N)nc2N)cc1C(N)=O" reads 100 nM

###

TEST_TARGET: P2X purinoceptor 3 (Rattus norvegicus, UniProt P49654)
ASSAY_COMMENT: Antagonist activity at rat recombinant P2X3 receptor expressed in CHO cells by FLIPR assay
Some compounds, each annotated with its measured pIC50.
Please note pIC50 is a logarithmic value: minus log10 of concentration in mol/L. Answer with that number alone.

>>> print(df.to_string())
                      compound_string  property  recorded_result
0  COc1cc(Cc2cnc(N)nc2N)c(C2CC2)cc1OC     pIC50             5.90

The reported pIC50 value, P2X purinoceptor 3 (Rattus norvegicus, UniProt P49654), for "COc1cc(C(C)C)c(Oc2cnc(N)nc2N)cc1C(C)C" reads 6.30

The reported pIC50 value, P2X purinoceptor 3 (Rattus norvegicus, UniProt P49654), for "COc1ccc(C(C)C)c(Oc2cnc(N)nc2N)c1" reads 6.40

The reported pIC50 value, P2X purinoceptor 3 (Rattus norvegicus, UniProt P49654), for "COc1cc(C(C)C)c(Oc2cnc(N)nc2N)cc1-c1ccccc1" reads 6.00

###

TEST_TARGET: P2X purinoceptor 3 (Rattus norvegicus)
ASSAY_COMMENT: Antagonist activity at rat recombinant P2X3 receptor expressed in CHO cells by FLIPR assay
pIC50: −log10 of the molar value.
I would appreciate it if you labelled entries TRUE when pIC50 is 7 or higher, otherwise FALSE.

These recorded examples may help you get a feel for the data.
>>> print(df.to_string())
                            compound_string    cat
0  COc1cc(C(C)C)c(Oc2cnc(N)nc2N)cc1C1=NCCN1  FALSE
1  COc1cc(C(C)C)c(Oc2cnc(N)nc2N)cc1-c1nnn[nH]1   TRUE
2       COc1cc(C(C)C)c(Oc2cnc(N)nc2N)cc1C#N  FALSE
3       COc1cc(Cc2cnc(N)nc2N)c(CC(C)C)cc1OC  FALSE
4        CCc1cc(Oc2cnc(N)nc2N)c(C(C)C)cc1OC   TRUE

Request: Quick check: does "COc1ccc(Oc2cnc(N)nc2N)c(C(C)C)c1" have pIC50 greater than or equal to 7?
Response: FALSE

Request: Quick check: does "COc1cc(C(C)C)c(Oc2cnc(N)nc2N)cc1Br" have pIC50 greater than or equal to 7?
Response: TRUE

Request: Quick check: does "COc1cc(Oc2cnc(N)nc2N)c(C(C)C)cc1I" have pIC50 greater than or equal to 7?
Response: TRUE

###

ASSAY_COMMENT: Clearance in dog
Format: ADME, organism-based, Canis lupus familiaris
SETTINGS: in vivo
PROPERTY: clearance (L/h/kg)
Write the answer as a number in L/h/kg, unit excluded.

Looking up "COc1cc(C(C)C)c(Oc2cnc(N)nc2N)cc1I" , I found its clearance recorded as 0.78

###

TEST_TARGET: P2X purinoceptor 3 (Rattus norvegicus)
ASSAY_COMMENT: Antagonist activity at rat recombinant P2X3 receptor expressed in CHO cells by FLIPR assay
PROPERTY: IC50 (nM)
Write the answer as a number in nM, unit excluded.

Known IC50 results, listed for orientation:
>>> print(df.to_string())
                      compound_string  units  recorded_result
0   COc1cc(C(C)C)c(Oc2cnc(N)nc2N)cc1C     nM              100
1  COc1cc(C(C)C)c(Oc2cnc(N)nc2N)cc1Cl     nM             25.1

Shifting focus to the compound that follows.
The reported IC50 value, P2X purinoceptor 3 (Rattus norvegicus), for "COc1cc(Oc2cnc(N)nc2N)c(C(C)C)cc1OC" reads 25.1

###

TEST_TARGET: P2X purinoceptor 3 (Rattus norvegicus)
ASSAY_COMMENT: Antagonist activity at rat recombinant P2X3 receptor expressed in CHO cells by FLIPR assay
Some molecules, each annotated with its measured pIC50.
Please note pIC50 is a logarithmic value: minus log10 of concentration in mol/L. Answer with that number alone.

Known pIC50 results, listed for orientation:
In [3]: df
Out[3]:
                            compound_string  recorded_result
0  COc1cc(C(C)C)c(Oc2cnc(N)nc2N)cc1S(C)(=O)=O             7.00
1    COc1cc(C(C)C)c(Oc2cnc(N)nc2N)cc1C(=O)O             6.80
2  COc1cc(C(C)C)c(Oc2cnc(N)nc2N)cc1-c1ncc[nH]1             6.80

Shifting focus to the molecule that follows.
Looking up "COc1cc(Oc2cnc(N)nc2N)c(C(C)C)cc1Br" , I found its pIC50 recorded as 7.10
